Test target: human MGL from HeLa cells (Homo sapiens, UniProt Q99685)
Construct: combining endogenously expressed MGL from HeLa cells with test compounds; endogenous in cells; host or cells: HeLa cells / cell homogenates
Sequence (Q99685 whole entry): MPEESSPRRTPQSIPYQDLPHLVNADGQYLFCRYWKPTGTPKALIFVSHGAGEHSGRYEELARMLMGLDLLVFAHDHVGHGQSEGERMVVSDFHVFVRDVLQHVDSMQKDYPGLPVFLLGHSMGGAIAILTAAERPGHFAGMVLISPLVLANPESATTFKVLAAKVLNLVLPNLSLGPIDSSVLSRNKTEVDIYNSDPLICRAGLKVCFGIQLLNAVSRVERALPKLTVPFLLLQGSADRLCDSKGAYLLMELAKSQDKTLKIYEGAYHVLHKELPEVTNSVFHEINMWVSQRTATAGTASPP
Procedure summary: In vitro MGL activity assay: [glycerol-1,3-3H]-oleyl glycerol cleavage by MGL from HeLa cells
Assay type: biochemical
Test conditions: 300 nM [Glycerol-1,3-3H]-oleyl glycerol, one hour incubation
pIC50: −log10 of the molar value.
Hi all, reminder that labels come from pIC50, split as bucket 1 (below 7), bucket 2 (7 to below 8), bucket 3 (8 or more)

Below are worked cases with known answers.
**Q:** Lab log: `C[C@H]1c2nn(C)c(-c3cc(F)cc(F)c3)c2CCN1C(=O)c1cccc(OCCF)c1Cl` — assign pIC50 category
**A:** bucket 3

**Q:** Entry to check: `C[C@H]1c2nn(C)c(-c3cc(F)c(F)c(F)c3)c2CCN1C(=O)c1cc(-n2cnnc2)cc(C(F)(F)F)c1`
**A:** bucket 1

**Q:** Entry to check: `COc1nccc(C(=O)N2CCc3c(nn(C)c3-c3cc(F)c(F)c(F)c3)[C@@H]2C)c1Cl`
**A:** bucket 2

Next:
**Q:** Lab log: `Cn1nc2c(c1-c1ccccc1)CCN(C(=O)c1cccc3c1OC(F)(F)O3)C2` — assign pIC50 category
**A:** bucket 1

**Q:** Entry to check: `C[C@H]1c2nn(C)c(-c3cc(F)c(F)c(F)c3)c2CCN1C(=O)c1ccccc1OC(F)(F)F`
**A:** bucket 2

**Q:** Entry to check: `Cn1nc2c(c1-c1ccccc1)CCN(C(=O)c1nc3ccccc3o1)C2`
**A:** bucket 1

**Q:** Entry to check: `C[C@H]1c2nn(C)c(-c3cc(F)c(F)c(F)c3)c2CCN1C(=O)c1cccc(OC(F)(F)F)c1`
**A:** bucket 2

**Q:** Entry to check: `COc1nccc(C(=O)N2CCc3c(nn(C)c3-c3cc(F)c(F)c(F)c3)[C@@H]2C)c1C`
**A:** bucket 2

**Q:** Entry to check: CC1c2nn(C)c(-c3cccc4c3ccn4C)c2CCN1C(=O)c1ccc2ncccc2c1 (stereo not shown)
**A:** bucket 1

**Q:** Entry to check: `COc1cccc(C(=O)N2CCc3c(nn(C)c3-c3cc(F)c(F)c(F)c3)[C@@H]2C)c1Cl`
**A:** bucket 3

**Q:** Entry to check: `CC(C)Oc1cncc(C(=O)N2CCc3c(nn(C)c3-c3cc(F)c(F)c(F)c3)[C@@H]2C)c1`
**A:** bucket 1

**Q:** Entry to check: `Cn1nc2c(c1-c1ccccc1)CCN(C(=O)c1ccc3c(c1)OCO3)C2`
**A:** bucket 1
